This section presents variants with their documented protein stability index values.
B1: ACSBG2 (parent)
chain: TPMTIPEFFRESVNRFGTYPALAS

- Variants of: B1
- Test Method Notes: protein stability index of a GFP-peptide fusion (GPS, HEK-293T) (PSI 1-6); higher = more stable;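 further: lentivirally expressed fusions sorted by FACS into six bins by GFP to DsRed ratio, PSI derived from sequencing read proportions per bin multiplied by bin number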
- Details: c terminus: a fixed tail appended
Output: the number by itself.

Reference set (2 entries):
| Seq | Meas Value |
| --- | --- |
| TPMTIPEDFRESVNRFGTYPALAS | 3.19 |
| TPMTLPEFFRESVNRFGTYPALAS | 1.97 |

Req: Read off the recorded protein stability index for TPMTIPEFFRESGNRFGTYPALAS
Resp: 2.2

Req: Read off the recorded protein stability index for TPMTKPEFFRESVNRFGTYPALAS
Resp: 2.19

Req: Read off the recorded protein stability index for TPMTIPEFFRESVNRFGTYPAPAS
Resp: 2.63
